Target: T1, human LGR7 (human, UniProt Q9HBX9 1-757)
T1 sequence (looked up): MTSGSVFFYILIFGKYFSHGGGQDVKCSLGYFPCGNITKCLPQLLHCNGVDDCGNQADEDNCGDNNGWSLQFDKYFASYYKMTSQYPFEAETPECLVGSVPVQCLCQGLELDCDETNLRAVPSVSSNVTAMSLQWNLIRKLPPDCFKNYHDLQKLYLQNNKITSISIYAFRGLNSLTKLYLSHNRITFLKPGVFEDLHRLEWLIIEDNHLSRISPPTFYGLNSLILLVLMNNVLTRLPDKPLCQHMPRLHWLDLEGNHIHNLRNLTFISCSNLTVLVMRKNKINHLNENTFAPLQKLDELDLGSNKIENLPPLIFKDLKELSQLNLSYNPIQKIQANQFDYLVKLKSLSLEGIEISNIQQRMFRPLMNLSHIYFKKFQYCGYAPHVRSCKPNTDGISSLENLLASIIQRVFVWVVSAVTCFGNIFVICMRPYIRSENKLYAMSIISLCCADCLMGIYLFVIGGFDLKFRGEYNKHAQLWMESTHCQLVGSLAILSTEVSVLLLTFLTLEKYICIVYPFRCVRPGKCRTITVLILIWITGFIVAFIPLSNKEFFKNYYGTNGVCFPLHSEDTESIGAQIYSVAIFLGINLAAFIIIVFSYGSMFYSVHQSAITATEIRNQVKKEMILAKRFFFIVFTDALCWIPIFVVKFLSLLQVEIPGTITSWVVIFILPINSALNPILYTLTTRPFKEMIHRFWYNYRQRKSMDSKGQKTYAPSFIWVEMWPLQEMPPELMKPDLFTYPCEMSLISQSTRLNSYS
Assay: cell-based or functional assay
Ends that are not written are not given here.
Item-by-item account of EC50, ligand stimulated β-galactosidase expression
Form entry: value (nM) — number only.

binder="Relaxin-3/INSL6 (R3/I6) chimeric polypeptide (ligand, human, disulfide (positions not given here), domain: A-chain; Two chains joined by disulfide bonds; FLAG tag removed) chain 1: RAAPYGVRLCGREFIRAVIFTCGGSRW chain 2: GYSEKCCLTGCTKEELSIAC" units_label=nM recorded_measurement=13.7

Proceed to the following item.
// query For the binder Relaxin-3/INSL5 (R3/I5) chimeric polypeptide (ligand, disulfide (positions not given here); also: two chains joined by disulfide bonds, places not given here, Two chains joined by disulfide bonds; FLAG tag removed with enterokinase; also called R3/I5 chimera; I5/R3) chain 1: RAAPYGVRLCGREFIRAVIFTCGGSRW chain 2: DLQTLCCTDGCSMTDLSALC , what EC50, ligand stimulated β-galactosidase expression is on record?
// result 412
